MEASURED_TARGET: human CXCR4 receptor with a C-terminal linear C9 peptide tag (human)
PROTOCOL: SPR (Biacore 2000), C9-tagged CXCR4 captured by 1D4 antibody, antibody injected, 4 °C
// values below are reported koff
Entry rule: numbers only, all in s⁻¹.

Study these solved cases before continuing.
BINDER	ENDPOINT_UNIT	koff
Antibody IV (antibody, human IgG4 S228P, kappa, F234A L235A, V domains shown) VH: EVQLVESGGGLVQPGGSLRLSCAASGFTSTDYYFSWVRQAPGKGLEWVGFIRNKRKGYTTEYSGSVKGRFTISRDDSKNSLYLQMNSLKTEDTAVYYCAREPITTDPRDYWGQGTLVTVSS VL: DIVMTQSPDSLAVSLGERATINCKSSQSLFNSRTRKKYLAWYQQKPGQPPKLLIYWASKRKSGVPDRFSGSGSGTDFTLTISSLQAEDVAVYYCKQSRFLRAFGQGTKLEIKR	s⁻¹	0.00398
Antibody III (antibody, human IgG4 S228P, kappa, F234A L235A, V domains shown, Human engineered anti-CXCR4 antibody; also called the antibody III) VH: EVQLVESGGGLVQPGGSLRLSCAASGFTSTDYYFSWVRQAPGKGLEWVGFIRYKSKGYTTEYSGSVKGRFTISRDDSKNSLYLQMNSLKTEDTAVYYCAREPITTDPRDYWGQGTLVTVSS VL: DIVMTQSPDSLAVSLGERATINCKSSQSLFNSRTRKKYLAWYQQKPGQPPKLLIYWASKRKSGVPDRFSGSGSGTDFTLTISSLQAEDVAVYYCKQSRFLRAFGQGTKLEIKR	s⁻¹	0.00172
Antibody II (antibody, human IgG4 S228P, kappa, F234A L235A, V domains shown) VH: EVQLVESGGGLVQPGGSLRLSCAASGFTSTDYYFSWVRQAPGKGLEWVGFIRSKSKGYTTEYSGSVKGRFTISRDDSKNSLYLQMNSLKTEDTAVYYCAREPITTDPRDYWGQGTLVTVSS VL: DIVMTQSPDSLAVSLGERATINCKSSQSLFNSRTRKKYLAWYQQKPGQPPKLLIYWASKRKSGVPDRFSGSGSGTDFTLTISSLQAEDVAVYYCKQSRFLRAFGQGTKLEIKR	s⁻¹	0.00181

Next, consider the following binder.
[in] For the binder Antibody I (antibody, human IgG4 S228P, kappa, F234A L235A, V domains shown) VH: EVQLVESGGGLVQPGGSLRLSCAASGFTSTDYYFSWVRQAPGKGLEWVGFIRTKSKGYTTEYSGSVKGRFTISRDDSKNSLYLQMNSLKTEDTAVYYCAREPITTDPRDYWGQGTLVTVSS VL: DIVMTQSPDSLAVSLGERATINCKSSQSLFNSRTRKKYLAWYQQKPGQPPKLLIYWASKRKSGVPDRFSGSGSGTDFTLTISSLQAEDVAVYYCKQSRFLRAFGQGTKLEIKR , what koff is on record?
[out] 0.00161
